Data credit: patent US9938321B2

# test-summary: in vitro
# assay-context: human, LC50 (50% lethal concentration), HeLa cells, 1 hr incubation at 37° C.
Form field: CC50 at 1 h (one value per entry).
Please make sure the unit comes right after the number.

Problem: Query (compound): Cc1cc(C)cc(CN2CC(=O)N(CCCN)CC(=O)N(Cc3cc(C)cc(C)c3)CC(=O)N(CCCN)CC(=O)N(Cc3cc(C)cc(C)c3)CC(=O)N(CCCN)CC2=O)c1 ; field requested: CC50 at 1 h
Solution: 180 µg/mL

Others:
Problem: Returns the measured CC50 at 1 h for the input compound. Input: NCCCN1CC(=O)N(Cc2cc(C(F)(F)F)cc(C(F)(F)F)c2)CC(=O)N(CCCN)CC(=O)N(Cc2cc(C(F)(F)F)cc(C(F)(F)F)c2)CC(=O)N(CCCN)CC(=O)N(Cc2cc(C(F)(F)F)cc(C(F)(F)F)c2)CC1=O
Solution: 47 µg/mL
